Data origin: paper PMC9965125

The following compounds are listed with their measured Mean Edema Thickness values.
test system: carrageenan induced paw edema; experiment: carrageenan-induced rat paw edema; type: in vivo; conditions: 3 h; 10 mg/kg indomethacin mol equivalent i.p.; ± standard error
Express the result in mm but write the number alone.

Would you please look over these solved cases?
compound	valueUnits	observedMeasurement
C#CCOC(=O)C(C)c1ccc(CC(C)C)cc1 (stereo not shown)	mm	0.103
COc1ccc2c(c1)c(CC(=O)OCc1cn(-c3ccccc3Cl)nn1)c(C)n2C(=O)c1ccc(Cl)cc1	mm	0.488
CC(C)Cc1ccc(C(C)C(=O)OCc2cn(-c3ccccc3Cl)nn2)cc1 (stereo not shown)	mm	0.033

Q: // lookup Mean Edema Thickness | system=carrageenan induced paw edema | key= CC(C)Cc1ccc(C(C)C(=O)OCc2cn(-c3ccc(Cl)cc3)nn2)cc1 (stereo not shown)
A: 0.040
